Measured values drawn from ChEMBL document CHEMBL3988442 for this set.

# TARGET OR SYSTEM: Protein translocase subunit SecA (Escherichia coli (strain K12)) (UniProt P10408)
# Sequence (P10408 whole entry): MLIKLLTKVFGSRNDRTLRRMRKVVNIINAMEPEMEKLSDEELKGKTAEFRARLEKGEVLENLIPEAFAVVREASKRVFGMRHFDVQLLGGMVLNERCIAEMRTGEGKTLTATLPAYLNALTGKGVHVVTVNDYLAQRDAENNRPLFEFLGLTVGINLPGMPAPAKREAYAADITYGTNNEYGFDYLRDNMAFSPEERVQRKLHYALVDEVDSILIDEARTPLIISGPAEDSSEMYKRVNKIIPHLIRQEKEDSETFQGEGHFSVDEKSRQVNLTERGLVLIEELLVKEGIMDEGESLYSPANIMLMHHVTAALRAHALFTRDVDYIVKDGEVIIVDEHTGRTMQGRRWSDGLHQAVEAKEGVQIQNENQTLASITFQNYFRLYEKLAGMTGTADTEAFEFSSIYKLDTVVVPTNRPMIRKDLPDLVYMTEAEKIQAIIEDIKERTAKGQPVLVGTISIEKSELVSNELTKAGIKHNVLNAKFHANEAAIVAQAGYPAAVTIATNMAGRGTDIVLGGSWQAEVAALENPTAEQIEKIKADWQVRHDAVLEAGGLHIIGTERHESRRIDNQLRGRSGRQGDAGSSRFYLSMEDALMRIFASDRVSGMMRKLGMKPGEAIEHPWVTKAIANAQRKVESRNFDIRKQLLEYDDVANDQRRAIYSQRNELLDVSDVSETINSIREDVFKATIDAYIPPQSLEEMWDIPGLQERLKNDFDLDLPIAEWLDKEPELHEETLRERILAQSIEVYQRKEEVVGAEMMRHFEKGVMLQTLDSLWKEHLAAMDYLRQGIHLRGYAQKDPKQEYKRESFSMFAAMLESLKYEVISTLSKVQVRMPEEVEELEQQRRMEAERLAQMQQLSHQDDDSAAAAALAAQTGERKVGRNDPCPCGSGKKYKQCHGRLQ
# ASSAY TEXT: Assay to Identify E. coli SecA ATPase Inhibitors
# Type: functional
# Set-up: scale not given: direction of the effect not stated beside the values
# CONDITION CONTEXT: 30 µM
Entries with a potency or affinity are not part of this list.
MEASURED METRIC: Percent Effect (%)
Answers are plain numbers, in %.

Worked set:
| COMPOUND | MEASURED METRIC | UNITS OF MEASURE | REPORTED MEASUREMENT |
| --- | --- | --- | --- |
| Cc1cc(CN(C)C(=O)c2ccc(F)cc2Br)no1 | Percent Effect | % | -3.65 |
| CCn1c(CN2CCCC2)nnc1C1CCN(Cc2ccc(C)o2)CC1 | Percent Effect | % | -1.86 |
| CCS(=O)(=O)N1CC[C@H](OC)[C@@H]1Cc1ccncc1 | Percent Effect | % | -2.5 |
| CN(C)S(=O)(=O)N1CCC(Oc2ccc(C#N)cc2)CC1 | Percent Effect | % | -1 |

Parameter requested: Percent Effect. Apply to each item below.
1. Cc1cc(N2CCC(c3nnc(CN(C)C)n3C3CC3)CC2)ccn1
2. COCCN1CC[C@@H]2O[C@@H](COCC(=O)N3CCCC3)CC[C@@H]21
3. Cc1nsc(NC(=O)N2CCC(C(C)(C)O)CC2)n1
4. CCC(=O)N(C)CC(=O)Nc1ccc(Br)cn1
5. Cc1cc(C)n(CC2CCCN2CCCS(N)(=O)=O)n1 (stereo not drawn)
6. Cc1ccccc1OCCC(=O)OC(C)C(=O)Nc1sccc1C(N)=O (stereo not drawn)

1: -5.32; 2: -3.65; 3: 1.56; 4: -6.29; 5: -1.45; 6: -2.66

Parameter requested: Percent Effect. Apply to each item below.
1. CN1CCN(c2ncc3c(=O)n(-c4cccc(F)c4)c(=O)[nH]c3n2)CC1
2. COC[C@@H]1CC[C@H]2[C@H](CCN2S(=O)(=O)c2ccc(F)cc2)O1
3. CS(=O)(=O)NCC(=O)N1CCCC1c1noc(C2CC2)n1 (stereo not drawn)
4. COC(=O)c1sccc1S(=O)(=O)N1CCC(Oc2cccnn2)CC1
5. O=C1CN(Cc2ccc(-c3ccccc3C(=O)O)cc2)CCN1
6. COCCNC(=O)Cn1nc(C(C)C)c2cnn(C(C)(C)C)c2c1=O
7. CN(C)CCN1CCC2(CCN(C(=O)c3ccc(F)cc3)CC2)C1=O

1. 0.451
2. -2.35
3. -3.88
4. -0.0971
5. 1.19
6. -2.65
7. -1.6

Parameter requested: Percent Effect. Apply to each item below.
1. OCCn1cc(CN2CCN(CCOc3ccccc3)CC2)cn1
2. Cc1cn2nc(N3CCCC3Cn3nc(C)cc3C)sc2n1 (stereo not drawn)
3. CCc1nc(CCNC(=O)NC2CC2)sc1C
4. Cc1noc(C)c1C(=O)N1CC[C@H]2C[C@@H](c3nccs3)O[C@@H]2C1
5. CC(C(=O)NCCOc1cccc(Cl)c1)n1cncn1 (stereo not drawn)
6. NCc1cn(-c2ccccc2C(=O)NCc2ccccc2)cn1
7. O=C(CN1CCCC(Cn2cncn2)C1)NCCOc1ccccc1 (stereo not drawn)
8. CC(C)(C)c1cn2nc(N3CCCC3Cn3cncn3)sc2n1 (stereo not drawn)

1. -4.31
2. -2.86
3. -5.62
4. -6
5. -1.19
6. -2.27
7. 3.17
8. 0.788
